Provenance of the data: ChEMBL document CHEMBL4325852

TARGET_OF_ASSAY: ATP-dependent translocase ABCB1 (Homo sapiens)
Sequence (P08183 whole entry): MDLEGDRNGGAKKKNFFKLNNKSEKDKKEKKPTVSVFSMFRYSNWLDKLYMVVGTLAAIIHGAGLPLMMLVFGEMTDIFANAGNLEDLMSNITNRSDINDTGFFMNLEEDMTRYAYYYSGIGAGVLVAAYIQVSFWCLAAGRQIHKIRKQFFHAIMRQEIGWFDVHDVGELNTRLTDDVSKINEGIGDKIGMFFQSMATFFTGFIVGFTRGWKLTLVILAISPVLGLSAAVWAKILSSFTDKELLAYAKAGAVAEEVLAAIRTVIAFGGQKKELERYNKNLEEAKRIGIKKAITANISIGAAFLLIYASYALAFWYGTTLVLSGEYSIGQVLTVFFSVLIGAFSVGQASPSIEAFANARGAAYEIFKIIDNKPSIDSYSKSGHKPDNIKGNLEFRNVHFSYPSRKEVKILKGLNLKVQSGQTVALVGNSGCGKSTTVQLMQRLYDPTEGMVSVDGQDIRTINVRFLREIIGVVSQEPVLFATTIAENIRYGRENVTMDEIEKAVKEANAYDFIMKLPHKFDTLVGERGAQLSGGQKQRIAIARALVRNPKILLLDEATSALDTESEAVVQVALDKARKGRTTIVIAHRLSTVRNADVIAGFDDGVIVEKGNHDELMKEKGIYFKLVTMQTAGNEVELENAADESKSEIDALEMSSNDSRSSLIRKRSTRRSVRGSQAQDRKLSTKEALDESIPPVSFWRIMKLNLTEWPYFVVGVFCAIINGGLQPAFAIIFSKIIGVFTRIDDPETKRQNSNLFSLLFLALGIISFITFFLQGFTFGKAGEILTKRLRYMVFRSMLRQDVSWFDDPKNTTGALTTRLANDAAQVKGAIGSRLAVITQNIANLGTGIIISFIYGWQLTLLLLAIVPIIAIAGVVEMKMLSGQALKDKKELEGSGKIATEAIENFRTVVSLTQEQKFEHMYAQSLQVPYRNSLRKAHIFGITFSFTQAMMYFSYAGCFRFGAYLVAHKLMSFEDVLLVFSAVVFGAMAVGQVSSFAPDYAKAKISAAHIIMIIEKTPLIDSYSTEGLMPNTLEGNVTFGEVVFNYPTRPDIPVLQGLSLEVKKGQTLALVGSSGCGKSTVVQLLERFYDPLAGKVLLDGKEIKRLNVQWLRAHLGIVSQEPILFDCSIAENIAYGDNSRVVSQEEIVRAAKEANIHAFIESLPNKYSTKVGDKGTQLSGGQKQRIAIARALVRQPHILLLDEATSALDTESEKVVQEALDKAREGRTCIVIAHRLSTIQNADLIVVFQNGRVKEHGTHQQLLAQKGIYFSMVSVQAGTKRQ
ASSAY_NAME: Reversal of P-gp-mediated multidrug resistance in human KBV cells assessed as potentiation of paclitaxel-induced cytotoxicity by measuring cell survival at 10 uM after 72 hrs by MTT assay (reference value: 104 +/- 8%)
Format: cell-based
Survival by entry:
# unit: % | format: bare number

>  <MOL_SMILES>
CC(C)(C)OC(=O)NCCCCCCCC(=O)N[C@H]1CC[C@]2(C)[C@H]3C[C@@H](O)[C@@H]4[C@@H]([C@]5(C)CC[C@@H](C(C)(C)O)O5)CC[C@@]4(C)[C@]3(C)CC[C@H]2C1(C)C

>  <UNIT_SYMBOL>
%

>  <Survival>
41

$$$$
>  <MOL_SMILES>
CC(C)(O)[C@@H]1CC[C@@](C)([C@H]2CC[C@]3(C)[C@@H]2[C@H](O)C[C@@H]2[C@@]4(C)CC[C@H](N)C(C)(C)[C@@H]4CC[C@]23C)O1

>  <UNIT_SYMBOL>
%

>  <Survival>
88

$$$$
>  <MOL_SMILES>
CCCCCC(=O)N[C@H]1CC[C@]2(C)[C@H]3C[C@@H](O)[C@@H]4[C@@H]([C@]5(C)CC[C@H](C(C)(C)O)O5)CC[C@@]4(C)[C@]3(C)CC[C@H]2C1(C)C

>  <UNIT_SYMBOL>
%

>  <Survival>
43

$$$$

Given the entry CC(C)(O)[C@@H]1CC[C@@](C)([C@H]2CC[C@]3(C)[C@@H]2[C@H](O)C[C@@H]2[C@@]4(C)CC[C@H](NC(=O)c5cccnc5)C(C)(C)[C@@H]4CC[C@]23C)O1 , report its measured Survival.
61

Given the entry CC(C)(C)OC(=O)NCCCC(=O)N[C@H]1CC[C@]2(C)[C@H]3C[C@@H](O)[C@@H]4[C@@H]([C@]5(C)CC[C@@H](C(C)(C)O)O5)CC[C@@]4(C)[C@]3(C)CC[C@H]2C1(C)C , report its measured Survival.
44

----------
TARGET_OF_ASSAY: UniProtKB P08183
ASSAY_NAME: Reversal of P-gp-mediated multidrug resistance in human KBV cells assessed as potentiation of paclitaxel-induced cytotoxicity by measuring cell survival at 5 uM after 72 hrs by MTT assay (reference value: 104 +/- 8%)
Format: cell-based
Survival by entry:
# do not omit the unit; it follows the number

Worked cases, Survival given:
>  <MOL_SMILES>
CC(C)(O)[C@@H]1CC[C@@](C)([C@H]2CC[C@]3(C)[C@@H]2[C@H](O)C[C@@H]2[C@@]4(C)CC[C@H](NC(=O)c5ccccc5O)C(C)(C)[C@@H]4CC[C@]23C)O1

>  <Survival>
61%

$$$$
>  <MOL_SMILES>
CC(C)(O)[C@H]1CC[C@@](C)([C@H]2CC[C@]3(C)[C@@H]2[C@H](O)C[C@@H]2[C@@]4(C)CC[C@H](N)C(C)(C)[C@@H]4CC[C@]23C)O1

>  <Survival>
72%

$$$$

# ---- query compound ----
Given the entry CC(C)(O)[C@@H]1CC[C@@](C)([C@H]2CC[C@]3(C)[C@@H]2[C@H](O)C[C@@H]2[C@@]4(C)CC[C@H](NC(=O)c5cccnc5)C(C)(C)[C@@H]4CC[C@]23C)O1 , report its measured Survival.
115%
